Provenance of the data: paper PMC10706865

System: A549 lung cancer cells
Method: MTT cell viability assay, A549 lung cancer cells
Format: cell-based, human
Condition info: IC50 MRC-5 divided by IC50 A549, 72 h, MTT
Quantity measured: Selectivity Index

Solved entries (count: 4):
Compound | Selectivity Index
O=C(c1cc2ccccc2o1)N1CCN(C(=O)Nc2ccc([N+](=O)[O-])cc2)C(c2ccccc2)C1 (centres unmarked) | 6.5 ± 2.1
CC(C)(C)OC(=O)N1CCN(C(=O)Nc2ccc(Cl)c(C(F)(F)F)c2)C(c2ccccc2)C1 (centres unmarked) | 1.0 ± 0.1
N#Cc1ccc(NC(=O)N2CCN(C(=O)c3cc4ccccc4o3)CC2c2ccccc2)cc1 (centres unmarked) | 12.8 ± 1.6
CC(C)(C)OC(=O)N1CCN(C(=O)Nc2cc(C(F)(F)F)ccc2Cl)C(c2ccccc2)C1 (centres unmarked) | 2.1 ± 0.3

Turning now to a further record.
Entry N.N.[Cl][Pt][Cl] [Cisplatin, reference compound] , Selectivity Index reported as 6.3 ± 1.8

###

Tested on: MCF7 human breast cancer cells
Method: MTT cell viability assay, MCF7 breast cancer cells
Assay type: cell-based
Condition info: 72 h exposure, MTT assay; read-out: IC50 (Mean ± SEM; μM) MCF7 (Cancer)
Quantity measured: IC50 (µM)
The reply should be a number in µM, with the unit left off.

The examples below pair each entry with its known result.
Compound | Target under test | Quantity measured | Quantitative readout
CC(C)(C)OC(=O)N1CCN(C(=O)Nc2ccc(C#N)cc2)C(c2ccccc2)C1 (stereo not shown) | MCF7 human breast cancer cells | IC50 | 19.5
CC1CN(C(=O)c2cc3ccccc3o2)CCN1C(=O)Nc1ccc(C#N)cc1 (stereo not shown) | MCF7 human breast cancer cells | IC50 | 19.4
CC1CN(C(=O)c2cc3ccccc3o2)CCN1C(=O)Nc1ccc([N+](=O)[O-])cc1 (stereo not shown) | MCF7 human breast cancer cells | IC50 | 12.1
CC(C)(C)OC(=O)N1CCN(C(=O)Nc2ccc(Cl)cc2)C(c2ccccc2)C1 (stereo not shown) | MCF7 human breast cancer cells | IC50 | 16.8
CC1CN(C(=O)C(C)(C)C)CCN1C(=S)Nc1ccc([N+](=O)[O-])cc1 (stereo not shown) | MCF7 human breast cancer cells | IC50 | 15.8

// switching to the query compound
Please fill in: IC50 reported for CC(C)(C)OC(=O)N1CCN(C(=O)Nc2cc(C(F)(F)F)ccc2Cl)C(c2ccccc2)C1 (stereo not shown) = 18.6

###

Test system: MRC-5 normal lung cells
Method: MTT cell viability assay, MRC-5 normal lung cells
Assay type: cell-based, human
Condition info: Homo sapiens, MRC5, 72 h exposure, read-out: IC50 (Mean ± SEM; μM) MRC-5 (Normal)
Quantity measured: IC50 (µM)
Report only the number, with the unit µM understood.

As a guide, the following entries are already answered.
Molecule | Quantity measured | Quantitative readout
O=C(c1cc2ccccc2o1)N1CCN(C(=O)Nc2ccc([N+](=O)[O-])cc2)C(c2ccccc2)C1 (stereo not shown) [Compound 35] | IC50 | 165
CC(C)(C)OC(=O)N1CCN(C(=O)Nc2cc(C(F)(F)F)ccc2Cl)C(c2ccccc2)C1 (stereo not shown) [Compound 31] | IC50 | 14.2
CC(C)(C)OC(=O)N1CCN(C(=O)Nc2ccc(Cl)c(C(F)(F)F)c2)C(c2ccccc2)C1 (stereo not shown) [Compound 32] | IC50 | 4.3

Short answer for N#Cc1ccc(NC(=O)N2CCN(C(=O)c3cc4ccccc4o3)CC2c2ccccc2)cc1 (stereo not shown) [Compound 37] : IC50 was 236

###

// reported IC50 per item
System: A549 lung cancer cells
Method: MTT cell viability assay, A549 lung cancer cells
Type: cell-based, human
Condition info: Homo sapiens, A549; 72 h exposure, MTT assay; read-out: IC50 (Mean ± SEM; μM) A549 (Cancer)
Write the value in µM as a bare number.

Solved cases (3 shown):
Molecule | Units | IC50
O=C(c1cc2ccccc2o1)N1CCN(C(=O)Nc2ccc([N+](=O)[O-])cc2)C(c2ccccc2)C1 (stereo not shown) | µM | 25.6
CC(C)(C)OC(=O)N1CCN(C(=O)Nc2ccc(Cl)c(C(F)(F)F)c2)C(c2ccccc2)C1 (stereo not shown) | µM | 5.2
CC(C)(C)OC(=O)N1CCN(C(=O)Nc2cc(C(F)(F)F)ccc2Cl)C(c2ccccc2)C1 (stereo not shown) | µM | 4.8

Shift focus to the following entry.
Measured IC50 (A549 lung cancer cells), entry N#Cc1ccc(NC(=O)N2CCN(C(=O)c3cc4ccccc4o3)CC2c2ccccc2)cc1 (stereo not shown) : 18.7
